- RUN DESCRIPTION: Plasma protein binding in rat
- Format: ADME, cell-free
- MEASUREMENT CONTEXT: read-out: PPB (converted)
EXPERIMENTAL ENDPOINT: fraction unbound
One number for each entry.

{"MOL": "O=C(O)C[C@H]1CC[C@H](c2ccc(-c3ccc4c(c3)CCN4C(=O)Nc3ccccc3)cc2)CC1", "fraction unbound": 0.002}

Now for a further compound.
Any idea what its fraction unbound is? The compound is O=C(O)C[C@H]1CC[C@H](c2ccc(-c3ccc4c(c3)OCCN4C(=O)Nc3ccccc3)cc2)CC1 0.002

###

- System: Mus musculus
- RUN DESCRIPTION: Reduction of postprandial plasma triglyceride level in C57BL/6J mouse at 10 mg/kg, po administered 15 mins prior to corn oil bolus challenge measured after 2 hrs relative to vehicle-treated control
- Assay type: functional
- Set-up: scale not given: the % may be the effect or the level left
Assign Activity to each entry below.
Form entry: enter the amount, then its unit.

For orientation, consider the following solved cases.
{"MOL": "O=C(O)C[C@H]1CC[C@H](c2ccc(-c3ccc4c(C(=O)Nc5ccccc5)cccc4c3)cc2)CC1", "Activity": "0%"}
{"MOL": "O=C(O)C[C@H]1CC[C@H](c2ccc(-c3ccc4c(ccn4C(=O)Nc4ccccc4)c3)cc2)CC1", "Activity": "-45%"}
{"MOL": "O=C(O)C[C@H]1CC[C@H](c2ccc(-c3ccc4c(C(=O)Nc5ccccc5)c[nH]c4c3)cc2)CC1", "Activity": "23%"}
{"MOL": "O=C(O)C[C@H]1CC[C@H](c2ccc(-c3ccc4c(c3)OCCN4C(=O)Nc3ccccc3)cc2)CC1", "Activity": "-52%"}
{"MOL": "O=C(O)C[C@H]1CC[C@H](c2ccc(-c3ccc4c(c3)CCCN4C(=O)Nc3ccccc3)cc2)CC1", "Activity": "-15%"}
{"MOL": "O=C(O)C[C@H]1CC[C@H](c2ccc(-c3ccc4c(c3)CCN4C(=O)Nc3ccccc3)cc2)CC1", "Activity": "-13%"}

Now for a further molecule.
Given the entry O=C(O)C[C@H]1CC[C@H](c2ccc(-c3ccc4c(C(=O)Nc5ccccc5)ccnc4c3)cc2)CC1 , what Activity was observed with Mus musculus? -85%

src = ChEMBL document CHEMBL3232904
